Parameter: GI50. Scope: all listed entries.
# System: SW-620
# assay_comment: NCI tumour cell line growth inhibition, 48 h
Calls of active or inactive are those of the source. No stated cut-off is given here; in the data, active = GI50 up to about 1.1 µM and inactive = higher.

In the examples that follow, each entry is paired with its recorded GI50.
>>> experimental_value("C/C(Nc1ccc(Cl)cc1)=C1/CCOC1=O")
"> 53.2 µM (inactive)"
>>> experimental_value("COc1cc(/C=C/C(=O)Oc2ccccc2)ccc1C(=O)O/C=C/c1ccccc1")
"> 100 µM (inactive)"
>>> experimental_value("O=C(Nc1nc2ccc([N+](=O)[O-])cc2s1)C(=O)C(C(=O)c1ccncc1)C1OC(=O)c2ccccc21 (stereo not given)")
"> 100 µM (inactive)"
>>> experimental_value("Cc1ccc(/N=N/C(=N\\c2ccc(F)cc2)c2ccc(N(CCC#N)CCC#N)cc2)cc1")
"> 100 µM (inactive)"
>>> experimental_value("CC1(C)CCC2=C(O1)/C(=N\\Nc1ccc(F)cc1)c1ccccc1C2=O")
"25.5 µM (inactive)"
>>> experimental_value("CSC1=C(C#N)C(=S)N=C(N)C1C(=O)Nc1ccc(C)cc1 (stereo not given)")
"> 100 µM (inactive)"
>>> experimental_value("O=C1CN(/N=C/c2ccc(-c3ccc(F)cc3)o2)C(=O)N1")
"43 µM (inactive)"
>>> experimental_value("COC(=O)[C@]1(c2cc3ccccc3[nH]2)CC2CN(C(=O)OCc3ccccc3)C1CC2=O (stereo not given in full)")
"29.6 µM (inactive)"

**Q:** Entry O=C1C2C(C(=O)N1c1ccccc1)C1(c3ccccc3)CCC2(C(=O)c2ccccc2)O1 (stereo not given) has what GI50?
**A:** > 10 µM (inactive)

**Q:** Entry CC(C)(C)[Si](C)(C)Oc1cc(CO)cc2c1cc(=N)o[n+]2[O-] has what GI50?
**A:** > 10 µM (inactive)

---

# Test system: NCI-H23
# assay_comment: NCI tumour cell line growth inhibition, 48 h
Activity calls are given as the source filed them. Rule as the data show it: active = GI50 up to about 1.1 µM and inactive = higher.
Respond only with the outcome that fits, drawn from TRUE for active, FALSE for inactive

>>> class_name("O=C1NC(=O)[C@H]2C3C=CC([C@@H]12)[C@@H]1C(=O)NC(=O)[C@H]31")
"FALSE"
>>> class_name("Cn1cc(NC(=O)c2cc(NC(=O)CNC(=N)N)cn2C)cc1C(=O)NCCC(=N)N [NETROPSIN CHLORIDE]")
"FALSE"
>>> class_name("C=C(C)CNC(=S)N(N)c1ccc2ccccc2c1")
"FALSE"
>>> class_name("CC(=O)O[C@H]1CSC[C@@H](OC(C)=O)C1[N+](=O)[O-] (stereo not given in full)")
"FALSE"

**Q:** Fill in: this test's call for CC1=C2C(c3ccccc3)(c3ccccc3)C3C=CC2(C=N3)N(C(=O)NC2CCCCC2)C1=O (stereo not given) is ___
**A:** FALSE

**Q:** Fill in: this test's call for CCC(=O)N1C(=S)SC[C@H]1C(=O)OC is ___
**A:** FALSE

**Q:** Fill in: this test's call for CNc1ccc(C(=O)CC(O)CCC(C)C2OC(=O)CC(O)CC(=O)CC(O)CC(O)CC(O)CC(O)CC3(O)CC(O)C(C(=O)N4CCOCC4)C(CC(OC4OC(C)C(O)C(N)C4O)\C=C/C=C\C=C/C=C/C=C/C=C\C=C/C2C)O3)cc1 (stereo not given) is ___
**A:** TRUE

**Q:** Fill in: this test's call for Cc1cccc(NC(=O)CC#N)c1Cl is ___
**A:** FALSE

**Q:** Fill in: this test's call for NCCCCCCNCc1cccc2ccccc12 is ___
**A:** FALSE

**Q:** Fill in: this test's call for CC1C2CC=CC(=O)[C@@]2(C)CCC12OCCO2 (stereo not given in full) is ___
**A:** FALSE

---

Parameter: GI50. Scope: all listed entries.
# System: SF-295
# assay_comment: NCI tumour cell line growth inhibition, 48 h
Activity calls are given as the source filed them. Cut-off read from the data, not from the text of the source: active = GI50 up to about 1.1 µM and inactive = higher.

>>> experimental_value("CCCCCCCCCCCCCCCCCCOCC(O)COP(=O)(O)OCC1OC(n2ccc(N)nc2=O)C(O)C1O (centres undefined)")
"22.7 µM (inactive)"
>>> experimental_value("Cn1cnc2c(NCc3ccccc3)nc(NCCO)nc21 [OLOMOUCINE]")
"41.1 µM (inactive)"
>>> experimental_value("Nn1c(CCCCCCCCc2nnc(COc3ccccc3)n2N)nnc1COc1ccccc1")
"> 100 µM (inactive)"

Please turn your attention to the following entry.
**Q:** Entry COC(=O)C(C)(C)/N=C/N(C)C has what GI50?
**A:** > 100 µM (inactive)

---

# Tested on: SW-620
# assay_comment: NCI tumour cell line growth inhibition, 48 h
Calls of active or inactive are those of the source. No stated cut-off is given here; in the data, active = GI50 up to about 1.1 µM and inactive = higher.
Parameter: GI50. Scope: all listed entries.

In the examples that follow, each entry is paired with its recorded GI50.
>>> experimental_value("O=C1/C(=C\\c2cccc(Oc3ccccc3)c2)S(=O)(=O)C(c2ccccc2)N1c1ccccc1Cl (stereo not drawn)")
"30.2 µM (inactive)"
>>> experimental_value("O=C(O)/C(=C/c1ccccc1)c1ccccc1")
"> 100 µM (inactive)"
>>> experimental_value("Cc1ccc(Nc2c3c(c(C#N)c4nc5ccccc5n24)CCCC3)cc1")
"15.4 µM (inactive)"

Please turn your attention to the following entry.
**Q:** Entry N#C/C(N)=C(C#N)/N=C/NCCO has what GI50?
**A:** > 100 µM (inactive)

---

Parameter: GI50. Scope: all listed entries.
# System: EKVX
# assay_comment: NCI tumour cell line growth inhibition, 48 h
Calls of active or inactive are those of the source. Rule as the data show it: active = GI50 up to about 1.1 µM and inactive = higher.

>>> experimental_value("CN(C)CCOC1(CC2CCCCC2)CCC(C(C)(C)C)CC1 (stereo not given)")
"8.07 µM (inactive)"
>>> experimental_value("O=C1c2ccc3c4ccccc4n(-c4ccccc4)c3c2C(=O)N1c1ccc(Cl)cc1")
"> 100 µM (inactive)"
>>> experimental_value("OCC1C(O)C(O)[C@@H]2SCCN12 (stereo not given in full)")
"> 100 µM (inactive)"

**Q:** Entry COc1cc([C@@H]2OC(=O)C3C2C(=O)O[C@H]3c2cc(OC)c(OC)c(OC)c2)cc(OC)c1OC (stereo not given in full) has what GI50?
**A:** > 100 µM (inactive)

**Q:** Entry CC(C)Sc1nncc(/C(N)=N/O)n1 has what GI50?
**A:** > 100 µM (inactive)

**Q:** Entry CCN1c2ccccc2-n2c(C)nnc2-c2c(-c3ccccc3)n[nH]c21 has what GI50?
**A:** 49.7 µM (inactive)

**Q:** Entry O=C1NC(O)CCN1C1CC(O)C(CO)O1 (stereo not given) has what GI50?
**A:** > 100 µM (inactive)

**Q:** Entry CCC/C=C\C=C\C1(NS(=O)(=O)c2ccc(C)cc2)CCC(C(C)(C)C)CC1 (stereo not given) has what GI50?
**A:** 14.2 µM (inactive)

**Q:** Entry CC1=C2C(c3ccccc3)(c3ccccc3)C3C=CC2(C=N3)N(C(=O)NC2CCCCC2)C1=O (stereo not given) has what GI50?
**A:** 14.8 µM (inactive)

**Q:** Entry CC1=N/C(=C\c2ccc(N)cc2)C(=O)N1Nc1nnc(NN2C(=O)/C(=C/c3ccc(N)cc3)N=C2C)c2ccccc12 has what GI50?
**A:** > 100 µM (inactive)

**Q:** Entry CC1(C)CC(N(C(=O)/C=C/c2ccc([N+](=O)[O-])o2)C2CCCCC2)CC(C)(C)N1 has what GI50?
**A:** 13.9 µM (inactive)

**Q:** Entry CC(C)c1ccc(/C=C2\CSCC3=C2N=C2SCC(=O)N2C3c2ccc(C(C)C)cc2)cc1 (stereo not given) has what GI50?
**A:** > 100 µM (inactive)

**Q:** Entry COc1cccc(/C=C2\S/C(=N/Nc3nc(-c4ccc([N+](=O)[O-])cc4)cs3)NC2=O)c1O has what GI50?
**A:** 17.4 µM (inactive)

**Q:** Entry CCOC(=O)C1=C(C)N(CC(C)C)C2(O)C(OC)CC(=O)C3C(=O)N(c4ccccc4)C(=O)C132 (stereo not given) has what GI50?
**A:** > 100 µM (inactive)

**Q:** Entry COc1ccc2c3c1O[C@H]1C(OC)C=CC4C(C2)N(Cc2cccs2)CCC341 (stereo not given in full) has what GI50?
**A:** 88.3 µM (inactive)

**Q:** Entry Cc1ccc(S(=O)(=O)NC(=O)Nc2cccc(S(N)(=O)=O)c2)cc1 has what GI50?
**A:** > 100 µM (inactive)

**Q:** Entry O=C(Nc1ccccc1C(=O)NCCCO)/C(=C/c1ccccc1O)NC(=O)c1ccccc1 has what GI50?
**A:** 65.6 µM (inactive)

**Q:** Entry Nc1cccc(/C=C/C(=O)N2CCN(CCOC(c3ccccc3)c3ccccc3)CC2)c1 has what GI50?
**A:** 18.7 µM (inactive)

**Q:** Entry C/C(=C/CC[C@](C)(OC1OC(CO)C(O)C(O)C1O)[C@H]1CC[C@]2(C)[C@@H]1CC[C@@H]1[C@@]3(C)CC[C@H](O)C(C)(C)[C@@H]3C[C@H](O)[C@]12CO)CO (stereo not given in full) has what GI50?
**A:** > 100 µM (inactive)
